- assayed_target: Solute carrier family 22 member 1 (Homo sapiens)
- experimental_details: Inhibition of human OCT1 expressed in HEK293 cells assessed as reduction in ASP+ substrate uptake by microplate reader based analysis

{"compound": "CN1CC[C@]23c4c5ccc(O)c4O[C@H]2C(=O)CC[C@@]3(O)[C@H]1C5 [OXYMORPHONE]", "IC50 [µM]": 250}
{"compound": "COc1ccc2c3c1O[C@H]1C(=O)CC[C@@]4(O)[C@@H](C2)N(C)CC[C@]314 [OXYCODONE]", "IC50 [µM]": 2000}
{"compound": "CNC[C@H]1CCCC[C@]1(O)c1cccc(OC)c1", "IC50 [µM]": 55.7}
{"compound": "COc1cccc([C@@]2(O)CCCC[C@@H]2CN(C)C)c1 [(R,R)-TRAMADOL]", "IC50 [µM]": 88.8}

----------
- experimental_details: Cmax in human at 10 mg, im
- details: in vivo

{"smiles_text": "CN1CC[C@]23c4c5ccc(O)c4O[C@H]2[C@@H](O)C=C[C@H]3[C@H]1C5", "Cmax / nM": 250}

----------
- assayed_target: OCT1 (SLC22A1) (Homo sapiens)
- experimental_details: Substrate activity at human OCT1 expressed in HEK293 cells assessed as increase in compound uptake by measuring Km incubated for 2 mins by LC-MS/MS analysis based Michaelis-Menten plot analysis relative to control empty vector transfected cells
- Type: cell-based
- details: HEK293 cells that express human OCT1

{"compound": "C[N+]1(CC2CC2)CC[C@]23c4c5ccc(O)c4O[C@H]2C(=O)CC[C@@]3(O)[C@H]1C5 (stereo partly specified) [METHYLNALTREXONE]", "Km at 2 min": "20 to 20.3 µM"}

----------
- assayed_target: UniProtKB O15245
- Sequence (O15245 whole entry): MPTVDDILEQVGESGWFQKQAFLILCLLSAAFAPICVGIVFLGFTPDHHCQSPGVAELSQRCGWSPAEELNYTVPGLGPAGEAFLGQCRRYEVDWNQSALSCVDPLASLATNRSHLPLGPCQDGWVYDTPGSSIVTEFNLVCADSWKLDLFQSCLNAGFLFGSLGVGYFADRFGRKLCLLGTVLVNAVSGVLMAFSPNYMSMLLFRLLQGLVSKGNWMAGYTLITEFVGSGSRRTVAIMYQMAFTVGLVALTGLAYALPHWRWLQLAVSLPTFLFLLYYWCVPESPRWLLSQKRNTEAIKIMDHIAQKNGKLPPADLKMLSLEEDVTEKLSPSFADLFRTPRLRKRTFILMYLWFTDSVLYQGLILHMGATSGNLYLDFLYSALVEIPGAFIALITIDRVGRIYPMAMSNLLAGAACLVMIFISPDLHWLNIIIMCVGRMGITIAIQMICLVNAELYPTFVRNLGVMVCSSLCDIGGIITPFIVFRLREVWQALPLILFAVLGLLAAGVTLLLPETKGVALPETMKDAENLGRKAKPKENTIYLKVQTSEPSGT
- experimental_details: Substrate activity at human OCT1 expressed in HEK293 cells assessed as increase in compound uptake at 0.1 uM incubated for 2 mins by LC-MS/MS analysis relative to control empty vector transfected cells
- Format: cell-based
- details: HEK293 cells that express human OCT1, read-out: FC
In plain terms, low uptake ratio at 2 min, 0.1 µM, meaning strictly below 2, gives 1, and everything else gives -1.

{"compound": "O=C1CC[C@@]2(O)[C@H]3Cc4ccc(O)c5c4[C@@]2(CCN3CC2CC2)[C@H]1O5 [NALTREXONE]", "discrete_label": 1}
{"compound": "COc1ccc2c3c1O[C@H]1[C@@H](O)C=C[C@H]4[C@@H](C2)N(C)CC[C@@]341", "discrete_label": 1}
{"compound": "CN1CC[C@@]23CCCC[C@@H]2[C@@H]1Cc1ccc(O)cc13", "discrete_label": 1}
{"compound": "CC[C@@H](c1cccc(O)c1)[C@@H](C)CN(C)C", "discrete_label": 1}
{"compound": "CCOC(=O)[C@@]1(c2ccccc2)CCC=C[C@@H]1N(C)C", "discrete_label": 1}
{"compound": "COc1ccc2c3c1O[C@H]1C(=O)CC[C@H]4[C@@H](C2)N(C)CC[C@]314 [HYDROCODONE]", "discrete_label": 1}
{"compound": "COc1ccc2c3c1O[C@H]1C(=O)CC[C@@]4(O)[C@@H](C2)NCC[C@]314", "discrete_label": -1}
{"compound": "CCC1(c2cccc(O)c2)CCCCN(C)C1 (stereo not given)", "discrete_label": -1}
{"compound": "COc1ccc2c(c1)[C@]13CCCC[C@@H]1[C@H](C2)N(C)CC3", "discrete_label": 1}
{"compound": "CCOC(=O)C1(c2ccccc2)CCN(C)CC1", "discrete_label": 1}
{"compound": "COc1ccc2c(c1)[C@@]13CCCC[C@H]1[C@@H](C2)NCC3", "discrete_label": -1}
{"compound": "CN1CC[C@]23c4c5ccc(O)c4O[C@H]2C(=O)CC[C@@]3(O)[C@H]1C5", "discrete_label": 1}
{"compound": "COc1ccc2c3c1O[C@H]1C(=O)CC[C@@]4(O)[C@@H](C2)N(C)CC[C@]314", "discrete_label": 1}
{"compound": "Oc1ccc2c(c1)[C@@]13CCCC[C@H]1[C@@H](C2)NCC3", "discrete_label": -1}
{"compound": "CN1CC[C@]23CCCC[C@H]2[C@H]1Cc1ccc(O)cc13", "discrete_label": 1}
